tested on: 624824-186-R-J2-PDC multicell spheroids, viability; test: Anticancer human tumor 624824-186-R-J2-PDC patient-derived colon adenocarcinoma cell line growth inhibition [PI3K]; conditions: second compound 0.01 µM; first compound 10 µM; active compounds read low;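 note: spheroids exposed to agents for 7 days before viability read; 100% = DMSO vehicle treated spheroids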
Readout: viability, T/C

# example entries with known answers
C#Cc1c(F)ccc2cc(O)cc(-c3ncc4c(N5CC6CCC(C5)N6)nc(OCC56CCCN5CC(F)C6)nc4c3F)c12 (stereo not drawn) + COc1c(OCCCN2CCOCC2)ccc2c3n(c(=NC(=O)c4cnc(N)nc4)nc12)CCN3 :: 95.4%
C[C@@H](NC(=O)c1ncnc(N)c1Cl)c1ncc(C(=O)Nc2cc(C(F)(F)F)c(Cl)cn2)s1 + CC(Nc1ccc2c(c1)OCCn1cc(N3C(=O)OCC3C(F)F)nc1-2)C(N)=O :: 77.2%

Lab note: next molecule to report on.
Report viability, T/C under test system 624824-186-R-J2-PDC multicell spheroids, viability for CC(C)NCC(C(=O)N1CCN(c2ncnc3c2C(C)CC3O)CC1)c1ccc(Cl)cc1 (stereo not drawn) + CC(Nc1ccc2c(c1)OCCn1cc(N3C(=O)OCC3C(F)F)nc1-2)C(N)=O .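 Note: spheroids exposed to agents for 7 days before viability read; 100% = DMSO vehicle treated spheroids.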
79.7%
